Assay: Competitive inhibition of L1 using cezafolin as substrate incubated for 30 mins prior to substrate addition by Lineweaver-burk plot analysis
ASSAY METRIC: Ki

These recorded examples may help you get a feel for the data.
[
  {
    "MOLECULE": "O=C(O)C1COC(C(=O)O)N1 (stereo not drawn)",
    "ASSAY METRIC": "Ki",
    "REPORTED": "1.9 µM"
  },
  {
    "MOLECULE": "O=C(O)C1CCC(C(=O)O)N1 (stereo not drawn)",
    "ASSAY METRIC": "Ki",
    "REPORTED": "0.69 µM"
  }
]

From here, focus on the item given below.
Reported Ki, molecule O=C(O)C1CSC(C(=O)O)N1 (stereo not drawn) : ____
1.8 µM

###

Test system: Escherichia coli BL21(DE3)
Assay: Inhibition of Imis in Escherichia coli BL21(DE3) assessed as reduction in cefazolin MIC after 24 hrs by macrobroth dilution assay
Details: in the assay text read “imipenem” for “cefazolin”
The source made the active and inactive calls. No cut-off for these calls is given here.
ASSAY METRIC: Activity

These recorded examples may help you get a feel for the data.
[
  {
    "MOLECULE": "O=C(O)C1COC(C(=O)O)N1 (configuration not stated)",
    "Activity": "inactive"
  },
  {
    "MOLECULE": "Sc1nnc(-c2ccccn2)[nH]1",
    "Activity": "inactive"
  },
  {
    "MOLECULE": "O=C(O)C1CCC(C(=O)O)N1 (configuration not stated)",
    "Activity": "inactive"
  },
  {
    "MOLECULE": "Sc1nnc(-c2ccncc2)[nH]1",
    "Activity": "inactive"
  },
  {
    "MOLECULE": "S=c1[nH]nc(-c2ccncc2)s1",
    "Activity": "50%"
  }
]

From here, focus on the item given below.
Reported Activity, molecule Sc1nnc(-c2ccccn2)s1 : ____
50%

###

System: Escherichia coli BL21(DE3)
Assay: Inhibition of L1 in Escherichia coli BL21(DE3) assessed as reduction in cefazolin MIC after 24 hrs by macrobroth dilution assay
Active and inactive are the calls of the source. No cut-off for these calls is given here.
Pick from true (1) (active), false (0) (inactive) when you respond.

# example entries with known answers
[
  {
    "MOLECULE": "Sc1nnc(-c2ccncc2)[nH]1",
    "CLASS ASSIGNMENT": "false (0)"
  },
  {
    "MOLECULE": "O=C(O)C1CSC(C(=O)O)N1 (configuration not stated) [TIDIACIC]",
    "CLASS ASSIGNMENT": "true (1)"
  },
  {
    "MOLECULE": "Sc1nnc(-c2ccccn2)[nH]1",
    "CLASS ASSIGNMENT": "false (0)"
  }
]

Here's the next entry for you.
Could you please tell me the result logged for S=c1[nH]nc(-c2ccncc2)s1 in this assay?
false (0)

###

Test system: Escherichia coli BL21(DE3)
Assay: Inhibition of L1 in Escherichia coli BL21(DE3) assessed as reduction in cefazolin MIC after 24 hrs by macrobroth dilution assay
Calls of active or inactive are those of the source. The calls are words filed in the database; no cut-off is given here.

[
  {
    "COMPOUND": "O=C(O)C1CCC(C(=O)O)N1 (stereo not drawn)",
    "Activity": "Active"
  },
  {
    "COMPOUND": "O=C(O)C1COC(C(=O)O)N1 (stereo not drawn)",
    "Activity": "Active"
  }
]

The reported measurements were obtained from ChEMBL document CHEMBL2062397.
